Please provide measured GI50 for the entries that follow.
# Test system: U-251
# test_name: NCI tumour cell line growth inhibition, 48 h
Calls of active or inactive are those of the source. Cut-off read from the data, not from the text of the source: active = GI50 up to about 1.1 µM and inactive = higher.

Give U-251 GI50 for COC(=O)N/N=C(/CC1(O)C(=O)Nc2ccc([N+](=O)[O-])cc21)c1ccccc1 (stereo not given)
29.9 µM (inactive)

Give U-251 GI50 for `C=C1CC[C@@H]2[C@](C)(COC(=O)CCC(=O)OC)CCC[C@@]2(C)[C@@H]1CCC1=CC(=O)OC1`
> 100 µM (inactive)

Give U-251 GI50 for `CSC(=O)c1sc(SC)[n+](-c2ccccc2)c1O`
16.5 µM (inactive)

Give U-251 GI50 for `CN(C)[C@@H]1C(O)=C(C(N)=O)C(=O)[C@@]2(O)C(O)=C3C(=O)c4c(O)cccc4C[C@H]3C[C@@H]12`
2.17 µM (inactive)

Give U-251 GI50 for COc1ccccc1Cc1ccc(C2C=CC3(CC(=O)C=C3C)C(=O)C2)o1 (stereo not given)
16.3 µM (inactive)

Give U-251 GI50 for `c1ccc2c(c1)SCCCSCCSCCCS2`
> 100 µM (inactive)

Give U-251 GI50 for `COc1cccc(Cc2c3cc(OC)ccc3cc[n+]2C)c1`
53.2 µM (inactive)

Give U-251 GI50 for `Cc1ccc(-c2c(N)[n+]([O-])c3ccccc3[n+]2[O-])cc1`
14.3 µM (inactive)

Give U-251 GI50 for `Cc1ccc2nc(N/N=C/c3cccc(C)n3)cc(C)c2c1`
16.9 µM (inactive)

Give U-251 GI50 for `C/C(CC(=O)Nc1ccc(NC(=O)C/C(C)=N\NC(N)=O)cc1)=N/NC(N)=O`
> 78 µM (inactive)

The reported measurements were obtained from ChEMBL document CHEMBL1201862.
